B1: HDV Ribozyme (parent)
chain: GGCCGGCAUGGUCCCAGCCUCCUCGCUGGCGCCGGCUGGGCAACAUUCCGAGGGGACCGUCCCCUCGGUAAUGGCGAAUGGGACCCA

# Variants of: B1
# measurement protocol: self-cleavage, relative activity (ratio to wild type); higher = more cleavage; co-transcriptional
Our labelling divides records by self-cleavage into ranges: category 1 (below 0.2), category 2 (0.2 to below 0.6), category 3 (0.6 or more)

variant_annotation="U47C U72G" cat="category 3"
variant_annotation="G25C G31U" cat="category 2"
variant_annotation="C4U C64A" cat="category 3"
variant_annotation="C15A A77G" cat="category 2"
variant_annotation="G1A C57U" cat="category 1"
variant_annotation="C3U G81A" cat="category 1"

Classify this variant: A71C A78C category 2

What do you get for C62A G73U ? category 2

Please give the result for A8U C85G too. category 3

Moving on to the next variant: G54U C62A category 3
